Target: BRD4 BD2 protein (Homo sapiens (Human))
Assay: Fluorescence polarization binding affinity (Ki) with BRD4 BD2 protein
Measurement Parameters: fluorescence polarization; Ki calculated from IC50
# reported pKi; entries follow
// returns pKi (minus log10 of molar concentration), number only

Cc1nnn2c1-c1ccc(-c3cnn(C)c3)cc1C(Nc1ccccc1CO)CC2 (centres unmarked)	7.79
Cc1nnn2c1-c1ccc(-c3cccc4[nH]cnc34)cc1C(Nc1ccc(Cl)cc1)CC2 (centres unmarked)	7.59
Cc1nnn2c1-c1ccc(-c3cnn(C)c3)cc1C(Nc1ccccc1OCCO)CC2 (centres unmarked)	7.78
Cc1nnn2c1-c1ccc(C3=CCN(C(C)C)CC3)cc1C(Nc1ccc(Cl)cc1)CC2 (centres unmarked) [LD24, 2,2,2-trifluoroacetate]	7.66
Cc1nnn2c1-c1ccc(-c3cnn(C)c3)cc1C(Nc1cccc3ncccc13)CC2 (centres unmarked)	7.85

Below: the item to evaluate.
Query (molecule): Cc1nnn2c1-c1ccc(-c3cnn(C)c3)cc1C(Nc1ccc(Cl)cc1)CC2 (centres unmarked) ; field requested: pKi 8.12

* * *

Target: BRD4 BD2 protein (Homo sapiens (Human))
Assay: Fluorescence polarization binding affinity (Ki) with BRD4 BD2 protein
Measurement Parameters: fluorescence polarization; Ki calculated from IC50
Measured pKi of individual entries
Expect pKi as a plain number equal to -log10 of the molar concentration.

Before answering, review these 3 worked examples.
CCC(C)N1CC=C(c2ccc3c(c2)C(Nc2cccc(Cl)c2)CCn2nnc(C)c2-3)CC1 (centres unmarked) [BH87, 2,2,2-trifluoroacetate]	7.35
Cc1nnn2c1-c1ccc(-c3cncc4[nH]ccc34)cc1C(Nc1ccc(Cl)cc1)CC2 (centres unmarked)	7.45
Cc1nnn2c1-c1ccc(C3=CCNCC3)cc1C(Nc1cccc(CC#N)c1)CC2 (centres unmarked) [RC71, 2,2,2-trifluoroacetate]	7.28

Record request: pKi value, item Cn1cc(-c2ccc3c(c2)C(Nc2ccc(Cl)cc2)CCn2nnc(C4CC4)c2-3)cn1 (centres unmarked) 7.32

Need pKi, item CC(=O)N1CC=C(c2ccc3c(c2)C(Oc2cccc(Cl)c2)CCn2nnc(C)c2-3)CC1 (centres unmarked) 7.51

Look up pKi for this compound: CCCN1CC=C(c2ccc3c(c2)C(Nc2cccc(Cl)c2)CCn2nnc(C)c2-3)CC1 (centres unmarked) [BH120, 2,2,2-trifluoroacetate] 7.66

* * *

The following molecules are shown together with reported log10(Ki) values.
Target: BRD4 BD1 protein (Homo sapiens (Human))
Assay: Fluorescence polarization binding affinity (Ki) with BRD4 BD1 protein
Measurement Parameters: fluorescence polarization; Ki calculated from IC50
Scale: log10; quantity: Ki; unit before log: nM

Sample answers from the record:
COC(=O)c1cccc(NC2CCn3nnc(C)c3-c3ccc(-c4cnn(C)c4)cc32)c1 (centres unmarked)	2.12
Cc1nnn2c1-c1ccc(C3=CCN(C4CCC4)CC3)cc1C(Nc1cccc(S(C)(=O)=O)c1)CC2 (centres unmarked) [BI61, 2,2,2-trifluoroacetate]	3.51

Name the reported log10(Ki) value associated with the molecule CNC(=O)c1cccc(NC2CCn3nnc(C)c3-c3ccc(-c4cnn(C)c4)cc32)c1 (centres unmarked) 2.12

Give its log10(Ki) value. Item: CC(=O)N1CC=C(c2ccc3c(c2)C(Nc2ccc(F)c(Cl)c2)CCn2nnc(C)c2-3)CC1 (centres unmarked) 1.91

Which measured log10(Ki) value corresponds to Cc1nnn2c1-c1ccc(C3=CCNCC3)cc1C(Nc1cccc(CO)c1)CC2 (centres unmarked) [RD21, 2,2,2-trifluoroacetate] ? 3.18

* * *

Target: BRD4 BD1 protein (Homo sapiens (Human), UniProt O60885)
Assay: Fluorescence polarization binding affinity (Ki) with BRD4 BD1 protein
Measurement Parameters: fluorescence polarization; Ki calculated from IC50
pKi: −log10 of the molar value.
Threshold check on pKi: at or above 6 gives Met, strictly below gives Not met.

Cc1nnn2c1-c1ccc(C3=CCN(C)CC3)cc1C(Oc1cccc(Cl)c1)CC2 (centres unmarked) [BH43, 2,2,2-trifluoroacetate]	Not met
CNC(=O)c1ccccc1NC1CCn2nnc(C)c2-c2ccc(-c3cnn(C)c3)cc21 (centres unmarked)	Met
Cc1nnn2c1-c1ccc(-c3cnn(C)c3)cc1C(Nc1cccc(O)c1)CC2 (centres unmarked)	Met
Cc1nnn2c1-c1ccc(C3=CCNCC3)cc1C(Nc1ccc(O)cc1)CC2 (centres unmarked) [LC117, 2,2,2-trifluoroacetate]	Not met

Assess whether reported pKi for Cc1nnn2c1-c1ccc(-c3ccc4c(c3)OCO4)cc1C(Nc1ccc(Cl)cc1)CC2 (centres unmarked) sits at 6 or higher. Met

Answer whether pKi of Cc1nnn2c1-c1ccc(-c3cnn(C)c3)cc1C(Nc1ccc(CO)cc1)CC2 (centres unmarked) is greater than or equal to 6. Met

Reported pKi reaches at least 6 for Cc1nnn2c1-c1ccc(-c3cnn(C)c3)cc1C(Nc1ccc(C(N)=O)cc1)CC2 (centres unmarked) ? Met

Is pKi for Cc1nnn2c1-c1ccc(-c3cnn(C)c3)cc1C(Nc1ccc(Cl)cc1)CC2C (centres unmarked) at or above 6? Met

* * *

Target: BRD4 BD2 protein (Homo sapiens (Human), UniProt O60885)
Assay: Fluorescence polarization binding affinity (Ki) with BRD4 BD2 protein
Measurement Parameters: fluorescence polarization; Ki calculated from IC50
Readout Label: Ki

Worked examples, 5 compounds total:
Cc1nnn2c1-c1ccc(-c3cnn(C)c3)cc1[C@H](Nc1cccc(Cl)c1)CC2 [RE124]	< 0.001 µM
Cc1nnn2c1-c1ccc(C3=CCNCC3)cc1C(Nc1ccc(C#N)cc1)CC2 (centres unmarked) [LC128, 2,2,2-trifluoroacetate]	0.0562 µM
Cc1nnn2c1-c1ccc(C3=CCN(C(C)C)CC3)cc1C(Nc1cccc(Cl)c1)CC2 (centres unmarked) [BH32, 2,2,2-trifluoroacetate]	0.00975 µM
CCn1cc(-c2ccc3c(c2)C(Nc2ccc(Cl)cc2)CCc2onc(C)c2-3)cn1 (centres unmarked) [LA93]	0.0467 µM
Cc1nnn2c1-c1ccc(-c3cnn(C)c3)cc1C(Nc1ccc(C(=O)O)cc1)CC2 (centres unmarked) [LB20]	0.0828 µM

// query Ki value for entry COc1ccc2c(c1)C(Nc1ccc(C(F)(F)F)cc1)CCc1onc(C)c1-2 (centres unmarked) [FA05] 0.138 µM

Please look up its Ki: Cc1nnn2c1-c1ccc(C3=CCNCC3)cc1C(Nc1cccc(CC(=O)O)c1)CC2 (centres unmarked) [LC87] 0.142 µM

Return reported Ki; argument: Cc1nnn2c1-c1ccc(-c3cnn(C)c3)cc1C(Nc1ccc(CN(C)C)cc1)CC2 (centres unmarked) [LB138] 0.203 µM

* * *

Target: BRD4 BD2 protein (Homo sapiens (Human))
Assay: Fluorescence polarization binding affinity (Ki) with BRD4 BD2 protein
Measurement Parameters: fluorescence polarization; Ki calculated from IC50
pKi: −log10 of the molar value.
Rule: Criterion met for pKi not less than 7, Criterion not met for anything less.

Solved entries:
Cc1nnn2c1-c1ccc(-c3cnn(C)c3)cc1C(Nc1cc(C3CC3)nn1C)CC2 (centres unmarked)	Criterion met
Cc1nnn2c1-c1ccc(-c3cnn(C)c3)cc1C(Nc1cc(F)cc(Cl)c1)CC2 (centres unmarked)	Criterion met
Cc1cc(NC2CCn3nnc(C)c3-c3ccc(C4=CCNCC4)cc32)n(C)n1 (centres unmarked) [BJ28, 2,2,2-trifluoroacetate]	Criterion not met
Cc1nnn2c1-c1ccc(-c3cnn(C)c3)cc1C(Nc1cccc(C(=O)O)c1)CC2 (centres unmarked)	Criterion met
Cc1nnn2c1-c1ccc(C3=CCN(C(C)C)CC3)cc1C(Nc1cccc(S(C)(=O)=O)c1)CC2 (centres unmarked) [BI60, 2,2,2-trifluoroacetate]	Criterion not met

Does Cc1nnn2c1-c1ccc(C3=CCN(C(C)C)CC3)cc1C(Nc1cccc(C#N)c1)CC2 (centres unmarked) [BI34, 2,2,2-trifluoroacetate] have a reported pKi of at least 7? Criterion not met

Answer whether pKi of Cc1nnn2c1-c1ccc(-c3cnn(C)c3)cc1C(Nc1ccc3ncccc3c1)CC2 (centres unmarked) is greater than or equal to 7. Criterion met

I'd appreciate it if you could say whether Cc1nnn2c1-c1ccc(C3=CCNCC3)cc1C(Nc1cccc(Cl)c1F)CC2 (centres unmarked) [LC190, 2,2,2-trifluoroacetate] has pKi at least equal to 7. Criterion met

Evaluate CCC(=O)N1CC=C(c2ccc3c(c2)C(Nc2cccc(Cl)c2)CCn2nnc(C)c2-3)CC1 (centres unmarked) : pKi at minimum 7? Criterion met

# bool: pKi of Cc1nnn2c1-c1ccc(-c3cnn(C)c3)cc1C(Nc1ccc(CO)cc1)CC2 (centres unmarked) >= 7 Criterion met

Does Cc1nnn2c1-c1ccc(-c3cnn(C)c3)cc1C(Nc1cccc(CC#N)c1)CC2 (centres unmarked) have a reported pKi of at least 7? Criterion met

Confirm if pKi reported for the compound `CCn1cc(-c2ccc3c(c2)[C@H](Nc2ccc(Cl)cc2)CCn2nnc(C)c2-3)cn1` is 7 or above. Criterion met

pKi >= 7 for CCc1nnn2c1-c1ccc(-c3cnn(C)c3)cc1C(Nc1ccc(Cl)cc1)CC2 (centres unmarked) ? Criterion met

Textbook exercise: given the entry Cc1nnn2c1-c1ccc(C3=CCNCC3)cc1C(Nc1ccc(OCCO)cc1)CC2 (centres unmarked) [LC133, 2,2,2-trifluoroacetate] , state whether its pKi is greater than or equal to 7. Criterion not met

Hi, just wondering whether Cc1nnn2c1-c1ccc(-c3cnn(C)c3)cc1C(Nc1cccc(CO)c1)CC2 (centres unmarked) shows pKi of 7 or higher. Criterion met

Could you tell me if the measured pKi of Cc1nnn2c1-c1ccc(-c3cnn(C)c3)cc1C(Nc1ccccc1O)CC2 (centres unmarked) reaches 7 or more? Criterion met

Identify whether the reported pKi of the following compound is 7 or greater: COc1ccc2c(c1)C(Nc1ccc(Cl)cc1)CCc1onc(C)c1-2 (centres unmarked) Criterion met

Please tell me: is the compound COC(=O)c1ccccc1NC1CCn2nnc(C)c2-c2ccc(-c3cnn(C)c3)cc21 (centres unmarked) at or over 7 in terms of pKi? Criterion met

Record Cc1noc2c1-c1ccc(-c3cn[nH]c3)cc1C(Nc1ccc(Cl)cc1)CC2 (centres unmarked) ; criterion: pKi no lower than 7. Met? Criterion met
